Values from ChEMBL document CHEMBL3596173

- target or system: Mu-type opioid receptor (Homo sapiens, UniProt P35372)
- Sequence (P35372 whole entry): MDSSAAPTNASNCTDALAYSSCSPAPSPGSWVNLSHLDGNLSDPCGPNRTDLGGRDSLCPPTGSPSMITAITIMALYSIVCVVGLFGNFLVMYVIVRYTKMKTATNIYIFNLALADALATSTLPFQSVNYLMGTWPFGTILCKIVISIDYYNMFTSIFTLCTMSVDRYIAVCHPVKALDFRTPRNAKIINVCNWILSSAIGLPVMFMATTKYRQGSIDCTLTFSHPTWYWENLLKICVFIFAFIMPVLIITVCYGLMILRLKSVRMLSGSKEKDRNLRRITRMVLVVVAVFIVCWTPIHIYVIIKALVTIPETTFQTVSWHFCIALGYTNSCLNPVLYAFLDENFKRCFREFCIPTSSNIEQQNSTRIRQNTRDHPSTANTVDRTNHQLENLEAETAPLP
- assay remarks: Displacement of [3H]-DAMGO from human mu opioid receptor expressed in CHO cells after 60 mins by scintillation counting analysis
- Type: cell-based
Non-standard residues stand in square brackets, D forms with d. Residues, ends and D or L forms follow the SMILES beside them. *: point of attachment. βGlc = OC[C@H]1O[C@@H](*)[C@H](O)[C@@H](O)[C@@H]1O; Aib = CC(C)(N)C(=O)O; GABA = NCCCC(=O)O
reported property: Ki (nM)
Kindly provide the numeric value in nM only, without the unit symbol.

[Q] Entry under review: `CC(C)C[C@H](NC(=O)[C@H](CO[C@@H]1O[C@H](CO)[C@@H](O)[C@H](O)[C@H]1O)NC(=O)[C@H](CCCCN)NC(=O)[C@H](CC(C)C)NC(=O)[C@H](C)NC(=O)[C@H](CC(N)=O)NC(=O)[C@H](CCCCN)NC(=O)C(C)(C)NC(=O)[C@H](CC(C)C)NC(=O)[C@H](CC(N)=O)NC(=O)CNC(=O)CNC(=O)[C@H](Cc1ccccc1)N(C)C(=O)CNC(=O)[C@@H](C)NC(=O)[C@@H](N)Cc1ccc(O)cc1)C(N)=O` . Reported Ki?
[A] 0.24

[Q] Entry under review: CC(C)C[C@H](NC(=O)[C@H](CO[C@@H]1O[C@H](CO)[C@@H](O)[C@H](O)[C@H]1O)NC(=O)[C@H](CCCCN)NC(=O)[C@H](CC(C)C)NC(=O)[C@H](C)NC(=O)[C@H](CCCCN)NC(=O)[C@H](CCC(=O)O)NC(=O)C(C)(C)NC(=O)[C@H](CC(C)C)NC(=O)[C@H](CC(N)=O)NC(=O)CCCNC(=O)[C@H](CC(C)C)NC(=O)[C@H](Cc1ccccc1)NC(=O)CNC(=O)[C@@H](NC(=O)[C@@H](N)Cc1ccc(O)cc1)[C@@H](C)O)C(N)=O (H-YTGFL[GABA]NL[Aib]EKALKS(βGlc)L-NH2) . Reported Ki?
[A] 4.3

[Q] Entry under review: `CC(C)C[C@H](NC(=O)[C@H](CO[C@@H]1O[C@H](CO)[C@@H](O)[C@H](O)[C@H]1O)NC(=O)[C@H](CCCCN)NC(=O)[C@H](CC(C)C)NC(=O)[C@H](C)NC(=O)[C@H](CCCCN)NC(=O)[C@H](CCC(=O)O)NC(=O)C(C)(C)NC(=O)[C@H](CC(C)C)NC(=O)[C@H](CC(N)=O)NC(=O)[C@@H]1CCCN1C(=O)CNC(=O)[C@H](Cc1ccccc1)N(C)C(=O)CNC(=O)[C@@H](C)NC(=O)[C@@H](N)Cc1ccc(O)cc1)C(N)=O` . Reported Ki?
[A] 3.2

###

- target or system: Delta-type opioid receptor (Homo sapiens, UniProt P41143)
- Sequence (P41143 whole entry): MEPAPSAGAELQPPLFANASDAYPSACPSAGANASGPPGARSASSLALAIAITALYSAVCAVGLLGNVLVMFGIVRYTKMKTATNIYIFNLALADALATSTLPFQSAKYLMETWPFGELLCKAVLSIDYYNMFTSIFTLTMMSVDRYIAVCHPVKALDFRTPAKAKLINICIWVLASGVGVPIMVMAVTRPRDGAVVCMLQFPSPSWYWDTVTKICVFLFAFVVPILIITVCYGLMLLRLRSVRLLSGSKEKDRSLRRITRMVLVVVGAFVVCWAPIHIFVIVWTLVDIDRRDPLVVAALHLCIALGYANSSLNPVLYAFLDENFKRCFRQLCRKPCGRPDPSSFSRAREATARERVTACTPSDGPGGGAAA
- assay remarks: Displacement of [3H]-naltrindole from human delta opioid receptor expressed in CHO cells after 3 hrs by scintillation counting analysis
- Format: cell-based
Non-standard residues stand in square brackets, D forms with d. Residues, ends and D or L forms follow the SMILES beside them. *: point of attachment. βGlc = OC[C@H]1O[C@@H](*)[C@H](O)[C@@H](O)[C@@H]1O; Aib = CC(C)(N)C(=O)O; Ava = NCCCCC(=O)O
reported property: Ki (nM)
Kindly provide the numeric value in nM only, without the unit symbol.

[Q] Entry under review: CC(C)C[C@H](NC(=O)[C@H](CO[C@@H]1O[C@H](CO)[C@@H](O)[C@H](O)[C@H]1O)NC(=O)[C@H](CCCCN)NC(=O)[C@H](CC(C)C)NC(=O)[C@H](C)NC(=O)[C@H](CCCCN)NC(=O)[C@H](CCC(=O)O)NC(=O)C(C)(C)NC(=O)[C@H](CC(C)C)NC(=O)[C@H](CC(N)=O)NC(=O)CCCCNC(=O)[C@H](CC(C)C)NC(=O)[C@H](Cc1ccccc1)NC(=O)CNC(=O)[C@@H](NC(=O)[C@@H](N)Cc1ccc(O)cc1)[C@@H](C)O)C(N)=O (H-YTGFL[Ava]NL[Aib]EKALKS(βGlc)L-NH2) . Reported Ki?
[A] 3.8

###

- target or system: Delta-type opioid receptor (Homo sapiens, UniProt P41143)
- assay remarks: Displacement of [3H]-naltrindole from human delta opioid receptor expressed in CHO cells after 3 hrs by scintillation counting analysis
- Format: cell-based
Non-standard residues stand in square brackets, D forms with d. Residues, ends and D or L forms follow the SMILES beside them. *: point of attachment. βGlc = OC[C@H]1O[C@@H](*)[C@H](O)[C@@H](O)[C@@H]1O; Aib = CC(C)(N)C(=O)O
reported property: Ki
Answer by giving the amount and then stating its unit.

[Q] Entry under review: CC(C)C[C@H](NC(=O)[C@H](CO[C@@H]1O[C@H](CO)[C@@H](O)[C@H](O)[C@H]1O)NC(=O)[C@H](CCCCN)NC(=O)[C@H](CC(C)C)NC(=O)[C@H](C)NC(=O)[C@H](CCCCN)NC(=O)[C@H](CCC(=O)O)NC(=O)C(C)(C)NC(=O)[C@H](CC(C)C)NC(=O)[C@H](CC(N)=O)NC(=O)CNC(=O)[C@H](CC(C)C)NC(=O)[C@H](Cc1ccccc1)NC(=O)CNC(=O)[C@@H](NC(=O)[C@@H](N)Cc1ccc(O)cc1)[C@@H](C)O)C(N)=O (H-YTGFLGNL[Aib]EKALKS(βGlc)L-NH2) . Reported Ki?
[A] 0.031 µM

###

Record form. Attribute: pKi. Fill in for each entry.
- target or system: Kappa-type opioid receptor (Homo sapiens)
- Sequence (P41145 whole entry): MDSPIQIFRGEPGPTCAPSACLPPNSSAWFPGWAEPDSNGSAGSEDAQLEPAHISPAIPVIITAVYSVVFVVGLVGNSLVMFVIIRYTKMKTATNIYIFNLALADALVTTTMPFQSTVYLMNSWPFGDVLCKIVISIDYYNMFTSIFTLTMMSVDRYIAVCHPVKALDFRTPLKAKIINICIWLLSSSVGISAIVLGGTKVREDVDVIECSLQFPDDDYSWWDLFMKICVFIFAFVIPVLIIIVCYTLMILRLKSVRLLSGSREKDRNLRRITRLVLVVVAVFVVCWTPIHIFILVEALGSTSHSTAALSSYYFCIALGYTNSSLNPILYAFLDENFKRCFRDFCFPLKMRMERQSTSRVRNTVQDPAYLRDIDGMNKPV
- assay remarks: Displacement of [3H]-U69593 from human kappa opioid receptor expressed in CHO cells after 60 mins by scintillation counting analysis
- Type: cell-based
Residues, ends and D or L forms follow the SMILES beside them. *: point of attachment. X1 = OC[C@H]1O[C@@H](O[C@H]2[C@H](O)[C@@H](O)[C@H](*)O[C@@H]2CO)[C@H](O)[C@@H](O)[C@@H]1O
Reminder that pKi is minus the log10 of a molar concentration.

[Q] Entry under review: CC(C)C[C@H](NC(=O)[C@H](Cc1ccccc1)NC(=O)CNC(=O)[C@@H](NC(=O)[C@@H](N)Cc1ccc(O)cc1)[C@@H](C)O)C(=O)N[C@@H](CO[C@@H]1O[C@H](CO)[C@@H](O[C@@H]2O[C@H](CO)[C@@H](O)[C@H](O)[C@H]2O)[C@H](O)[C@H]1O)C(N)=O (H-YTGFLS(X1)-NH2) . Reported pKi?
[A] 7.38

[Q] Entry under review: `CC(C)C[C@H](NC(=O)[C@H](CO[C@@H]1O[C@H](CO)[C@@H](O)[C@H](O)[C@H]1O)NC(=O)[C@H](CCCCN)NC(=O)[C@H](CC(C)C)NC(=O)[C@H](C)NC(=O)[C@H](CCCCN)NC(=O)[C@H](CCC(=O)O)NC(=O)C(C)(C)NC(=O)[C@H](CC(C)C)NC(=O)[C@H](CC(N)=O)NC(=O)CNC(=O)CNC(=O)[C@H](Cc1ccccc1)N(C)C(=O)CNC(=O)[C@@H](C)NC(=O)[C@@H](N)Cc1ccc(O)cc1)C(N)=O` . Reported pKi?
[A] 7.23

[Q] Entry under review: `CC(C)C[C@H](NC(=O)[C@H](CO[C@@H]1O[C@H](CO)[C@@H](O)[C@H](O)[C@H]1O)NC(=O)[C@H](CC(N)=O)NC(=O)[C@H](CC(C)C)NC(=O)[C@H](C)NC(=O)[C@H](CC(N)=O)NC(=O)[C@H](CC(N)=O)NC(=O)C(C)(C)NC(=O)[C@H](CC(C)C)NC(=O)[C@H](CC(N)=O)NC(=O)CNC(=O)CNC(=O)[C@H](Cc1ccccc1)N(C)C(=O)CNC(=O)[C@@H](C)NC(=O)[C@@H](N)Cc1ccc(O)cc1)C(N)=O` . Reported pKi?
[A] 6.47

[Q] Entry under review: `CC(C)C[C@H](NC(=O)[C@H](CO[C@@H]1O[C@H](CO)[C@@H](O)[C@H](O)[C@H]1O)NC(=O)[C@H](CCCCN)NC(=O)[C@H](CC(C)C)NC(=O)[C@H](C)NC(=O)[C@H](CCCCN)NC(=O)[C@H](CCC(=O)O)NC(=O)C(C)(C)NC(=O)[C@H](CC(C)C)NC(=O)[C@H](CC(N)=O)NC(=O)[C@@H]1CCCN1C(=O)[C@@H]1CCCN1C(=O)[C@H](Cc1ccccc1)N(C)C(=O)CNC(=O)[C@@H](C)NC(=O)[C@@H](N)Cc1ccc(O)cc1)C(N)=O` . Reported pKi?
[A] 7.72

[Q] Entry under review: `CC(C)C[C@H](NC(=O)[C@H](CO[C@@H]1O[C@H](CO)[C@@H](O)[C@H](O)[C@H]1O)NC(=O)[C@H](CCCCN)NC(=O)[C@H](CC(C)C)NC(=O)[C@H](C)NC(=O)[C@H](CC(N)=O)NC(=O)[C@H](CCCCN)NC(=O)C(C)(C)NC(=O)[C@H](CC(C)C)NC(=O)[C@H](CC(N)=O)NC(=O)CNC(=O)CNC(=O)[C@H](Cc1ccccc1)N(C)C(=O)CNC(=O)[C@@H](C)NC(=O)[C@@H](N)Cc1ccc(O)cc1)C(N)=O` . Reported pKi?
[A] 7.96
